- Tested on: BUB1
- run-conditions: concentration: 1 μM,replicates: in singlicate; n = 1;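 further: KINOMEscan kinase panel screen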
Overview of recorded %Inh for various compounds
endpoint: %Inh (%)

{"line-notation": "Cl.Nc1n[nH]c2cc(-c3ccccn3)ccc12", "endpoint": "%Inh", "units-text": "%", "recorded-number": 0}
{"line-notation": "CC(C)S(=O)(=O)N1CCN(Cc2ccc3c(c2)nc(NC(=O)c2ccsc2)n3C[C@H](O)c2ccccc2)CC1", "endpoint": "%Inh", "units-text": "%", "recorded-number": 13}
{"line-notation": "COc1cc2c(Nc3ccc(NC(=O)c4ccccc4)cc3)ncnc2cc1OCCCN1CCOCC1", "endpoint": "%Inh", "units-text": "%", "recorded-number": 10}
{"line-notation": "Cc1ccn2nc(-c3ccc(F)cc3)c(-c3ccncc3)c2c1.Cl", "endpoint": "%Inh", "units-text": "%", "recorded-number": 87}
{"line-notation": "Cn1ccc2ncnc(Oc3ccc(NC(=O)Nc4cnn(C(C)(C)C)c4)c(Cl)c3)c21", "endpoint": "%Inh", "units-text": "%", "recorded-number": 0}

====

Each entry below carries its recorded %Inh.
- System: CAMK1
- run-conditions: concentration: 1 μM,replicates: in singlicate; n = 1

{"line-notation": "Cc1ccc2c(-c3ccnc(Nc4ccc(C(F)(F)F)cc4)n3)cnn2n1", "units-text": "%", "%Inh": 0}
{"line-notation": "Cc1n[nH]c2cc(Nc3ccnc(Nc4cccc(CN5CCOCC5)c4)n3)ccc12", "units-text": "%", "%Inh": 43}
{"line-notation": "CCOC(=O)N1CCC(n2cnc(-c3ccc(F)cc3)c2-c2ccnc(N)n2)CC1", "units-text": "%", "%Inh": 0}
{"line-notation": "O=C(NOCC1CC1)c1cc(Br)c(F)c(F)c1Nc1ccc(I)cc1Cl", "units-text": "%", "%Inh": 0}
{"line-notation": "O=C(Nc1n[nH]c2cc(-c3ccco3)ccc12)C1CC1", "units-text": "%", "%Inh": 5}

====

- Tested on: CDK3
- run-conditions: concentration: 1 μM,replicates: in singlicate; n = 1
endpoint: %Inh (%)

{"molecule": "O=C(NOCC1CC1)c1cc(Br)c(F)c(F)c1Nc1ccc(I)cc1Cl", "endpoint": "%Inh", "recorded-number": 14}
{"molecule": "COc1cc(Nc2nccc(N3CCC(NC(=O)c4cccc(C#N)c4)C3)n2)cc(OC)c1OC (centres unmarked)", "endpoint": "%Inh", "recorded-number": 0}
{"molecule": "O=C(Nc1ccc(Oc2ccc3nc(NC(=O)C4CC4)cn3n2)c(F)c1)c1cccn(-c2ccccc2)c1=O", "endpoint": "%Inh", "recorded-number": 39}
{"molecule": "CN(c1ccccc1CNc1nc(Nc2ccc3c(c2)CC(=O)N3)ncc1C(F)(F)F)S(C)(=O)=O", "endpoint": "%Inh", "recorded-number": 55}
{"molecule": "O=C(Nc1n[nH]c2cc(-c3ccco3)ccc12)C1CC1", "endpoint": "%Inh", "recorded-number": 7}

====

- Tested on: IRAK4
- run-conditions: concentration: 1 μM,replicates: in singlicate; n = 1
Decision: %Inh beneath 10% gives Y; %Inh meeting or exceeding 10% gives N.

{"compound": "CN(c1cccc(CNc2nc(Nc3ccc4c(c3)CC(=O)N4)ncc2C(F)(F)F)c1)S(C)(=O)=O", "target-or-test-system": "IRAK4", "label": "Y"}
{"compound": "O=C(Nc1cccc(Oc2ccc3nccn3n2)c1)Nc1cccc(C(F)(F)F)c1", "target-or-test-system": "IRAK4", "label": "Y"}
{"compound": "O=C(Nc1cccc(C(F)(F)F)c1)c1cccc(Oc2ccc3nccn3n2)c1", "target-or-test-system": "IRAK4", "label": "N"}
{"compound": "CS(=O)(=O)Nc1ccc(-c2ccnc3[nH]ccc23)cc1 [GSK993273]", "target-or-test-system": "IRAK4", "label": "N"}
{"compound": "C[C@@H](Oc1cc(-n2cnc3cc(-c4cnn(C)c4)ccc32)sc1C(N)=O)c1ccccc1Cl [GSK580432]", "target-or-test-system": "IRAK4", "label": "N"}
{"compound": "O=C(NCC1CC1)c1ccc(-c2cc(C(=O)NC3CC3)ccc2F)cc1 [GW810445]", "target-or-test-system": "IRAK4", "label": "Y"}
{"compound": "CCN1CCN(CCCC(=O)Nc2n[nH]c3nc(-c4ccc(O)cc4)c(Br)cc23)CC1 [SB-731579]", "target-or-test-system": "IRAK4", "label": "Y"}
{"compound": "Cn1cc(-c2cccc3c(N)c(C(N)=O)nnc23)cn1", "target-or-test-system": "IRAK4", "label": "N"}
{"compound": "Cc1ccc(Nc2ccnc(Nc3ccc4c(c3)CS(=O)(=O)C4)n2)cc1O.Cl [GW579362]", "target-or-test-system": "IRAK4", "label": "N"}
